- Tested on: RAW264.7
- protocol details: Cytotoxicity in mouse RAW264.7 cells after 24 hrs by MTT assay
- Type: cell-based
- experimental setup: raw264.7, 24 h
Measured CC10 of individual entries
Record the value in µg/mL, omitting the unit from your answer.

Would you please look over these solved cases?
H-LRRLRRRWWWRRRLRRL-NH2 256
H-LRRLRRRWWRRRLRRL-NH2 128
H-LRRLRRRLRRLRRRWRRRLRRLRRRLRRL-OH 128
H-WRRWRRRWRRRWRRW-NH2 128
H-LRRLRRRWRRRLRRL-NH2 256

Lab note: next substance to report on.
Any idea what CC10 was measured for H-FRRFRRRWRRRFRRF-NH2 ?
256

FYI, the data here is from ChEMBL document CHEMBL4007441.
